molecular target: TGF-beta1 (hTGF-beta1) (Homo sapiens) (UniProt P01137); test: filter; details: 2'-F C and U; biphasic; Kd1 5.7±1.9 nM
Sequence (P01137 279-390): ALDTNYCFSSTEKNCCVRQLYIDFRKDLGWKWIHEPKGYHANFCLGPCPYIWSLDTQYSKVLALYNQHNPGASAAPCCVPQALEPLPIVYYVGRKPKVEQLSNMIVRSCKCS
property-label: Kd
Show the value, then the unit it is measured in.

Which Kd is reported for this sequence? GGGAGGACGAUGCGGUUAACCNUAAAUACGGCUUGANUUCUUCCGCAGACGACUCGCCCGA [30-19]
346 pM
